The values you see were collected from ChEMBL document CHEMBL4261586.

Test system: Mycobacterium tuberculosis
Test: Antimycobacterial activity against multidrug-resistant Mycobacterium tuberculosis 5023 harboring rpoB S531L/katG S315T mutation mutation after 7 days by resazurin microtitre plate assay
Assay type: functional
Parameter: MIC. Scope: all listed entries.
assay-endpoint: MIC (µg/mL)

{"compound": "Cc1cnc(CCNC(=O)c2ccc([N+](=O)[O-])o2)n1C1CCC1", "unit-symbol": "µg/mL", "result-value": 12.5}
{"compound": "Cc1cnc(CC2CCN(C(=O)c3ccc([N+](=O)[O-])o3)C2)n1CC1CC1 (stereo not given)", "unit-symbol": "µg/mL", "result-value": 6.2}
{"compound": "Cc1cnc(-c2ccccc2)n1CC1CCN(C(=O)c2ccc([N+](=O)[O-])o2)C1 (stereo not given)", "unit-symbol": "µg/mL", "result-value": 6.2}
{"compound": "Cc1cnc(C)n1C1CCN(C(=O)c2ccc([N+](=O)[O-])o2)C1 (stereo not given)", "unit-symbol": "µg/mL", "result-value": 25}
{"compound": "CCCn1c(C)cnc1C1CN(C(=O)c2ccc([N+](=O)[O-])o2)C1", "unit-symbol": "µg/mL", "result-value": 3.1}
